Recorded EC50 for the following compounds
- Target desc: LXRβ (Homo sapiens, UniProt P55055)
- Construct: Co-transfection expression plasmids, comprising full-length LXRα (pCMX-h LXRα[…] or LXRβ (pCMX-hLXRβ))
- Sequence (P55055 whole entry): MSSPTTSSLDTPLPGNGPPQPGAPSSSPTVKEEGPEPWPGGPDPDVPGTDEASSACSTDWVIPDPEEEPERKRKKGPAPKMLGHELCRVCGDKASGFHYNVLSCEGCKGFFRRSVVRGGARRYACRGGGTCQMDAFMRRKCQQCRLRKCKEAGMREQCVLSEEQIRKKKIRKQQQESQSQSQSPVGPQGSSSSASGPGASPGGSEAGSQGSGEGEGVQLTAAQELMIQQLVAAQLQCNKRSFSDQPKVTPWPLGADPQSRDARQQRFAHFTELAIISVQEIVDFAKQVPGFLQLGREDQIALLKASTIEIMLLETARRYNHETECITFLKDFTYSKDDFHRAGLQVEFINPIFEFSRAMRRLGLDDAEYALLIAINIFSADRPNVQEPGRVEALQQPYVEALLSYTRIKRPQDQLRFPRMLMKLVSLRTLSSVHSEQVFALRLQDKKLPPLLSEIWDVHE
- Sequence (P19793 whole entry partner): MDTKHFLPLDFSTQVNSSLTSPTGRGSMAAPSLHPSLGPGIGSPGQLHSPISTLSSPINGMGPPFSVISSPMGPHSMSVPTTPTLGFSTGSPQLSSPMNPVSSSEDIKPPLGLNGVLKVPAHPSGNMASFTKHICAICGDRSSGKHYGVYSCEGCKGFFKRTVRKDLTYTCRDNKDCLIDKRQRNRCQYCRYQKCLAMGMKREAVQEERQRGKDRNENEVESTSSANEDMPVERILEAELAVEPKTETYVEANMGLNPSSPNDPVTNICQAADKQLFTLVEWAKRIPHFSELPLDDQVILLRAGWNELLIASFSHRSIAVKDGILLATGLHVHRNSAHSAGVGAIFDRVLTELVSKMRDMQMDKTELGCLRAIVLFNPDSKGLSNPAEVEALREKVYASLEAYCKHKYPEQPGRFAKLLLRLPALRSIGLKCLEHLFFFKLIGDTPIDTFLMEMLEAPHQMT
- Protocol details: Co-transfection assay (LXRE luciferase reporter), LXRβ
- Measurement setup: CV-1 cells transfected with pCMX-hLXRβ and LXREx1-Tk-Luciferase; 20 hours incubation
Answer format: numeric, nM implied, no suffix.

Worked cases, answers included:
- COc1ncc(-c2oc(C)nc2-c2cc(-c3cc(F)c(CO)c(S(C)(=O)=O)c3)ccc2-n2cc(C(F)(F)F)nc2C)cn1: 1500
- COCCc1nc(-c2cc(-c3cccc(S(C)(=O)=O)c3)ccc2-n2cc(C(F)(F)F)nc2C)c(-c2ccc(OC(F)(F)F)cc2)o1: 164

Q: Please list EC50 recorded for the compound Cc1nc(-c2cc(-c3cc(F)c(CO)c(S(C)(=O)=O)c3)ccc2-n2cc(C(F)(F)F)nc2C)c(-c2ccc(Cl)nc2Cl)o1
Ans: 111

* * *

- Target desc: LXRβ (Homo sapiens, UniProt P55055)
- Construct: Co-transfection expression plasmids, comprising full-length LXRα (pCMX-h LXRα[…] or LXRβ (pCMX-hLXRβ)); expressed in transfected cells; host or cells: CV-1 African Green Monkey Kidney Cells
- Protocol details: Co-transfection assay (LXRE luciferase reporter), LXRβ
- Format: cell-based
- Measurement setup: LXRβ co-transfection; relative to high control 1-(2,4-difluorobenzyl)-2-oxo-6-(4-phenoxyphenyl)-4-(trifluoromethyl)-1,2-dihydropyridine-3-carbonitrile; read-out: % Efficacy
Just so you know, the groups by Emax go like this: band 1 (below 60%), band 2 (60% to below 70%), band 3 (70% or more)

Here are 5 compounds together with their reported answers.
* Cc1nc(C(F)(F)F)cn1-c1ccc(-c2cc(F)c(CO)c(S(C)(=O)=O)c2)cc1-c1nc(C(C)C)oc1-c1ccc2c(c1)OC(F)(F)O2 | band 2
* Cc1nc(C(F)(F)F)cn1-c1c(F)cc(-c2ccc(CO)c(S(C)(=O)=O)c2)cc1-n1nncc1-c1ccc(Cl)cc1 | band 3
* Cc1nc(C(F)(F)F)cn1-c1ccc(-c2ccc(CO)c(S(C)(=O)=O)c2)cc1-n1nncc1-c1ccc(OC(F)(F)F)cc1 | band 3
* Cc1nc(-c2cc(-c3cccc(S(C)(=O)=O)c3)ccc2-n2cc(C(F)(F)F)nc2C)c(-c2ccc3c(c2)CC(C)(C)O3)o1 | band 2
* Cc1nc(C(F)(F)F)cn1-c1ccc(-c2cc(F)c(CO)c(S(C)(=O)=O)c2)cc1-c1nc(C(F)(F)F)cn1-c1ccc(Cl)cc1 | band 1

Q: Please let me know in which category the item Cc1nc(C(F)(F)F)cn1-c1ccc(-c2cccc(S(C)(=O)=O)c2)cc1-n1nncc1Cc1ccc(F)cc1 belongs.
Ans: band 2

Q: Form field 'band' for Cc1nc(-c2cc(-c3cc(F)c(CO)c(S(C)(=O)=O)c3)ccc2-n2cc(C(F)(F)F)nc2C)c(-c2cc(F)cc(Cl)c2)o1
Ans: band 1

Q: Using the reported Emax, which band applies to Cc1nc(C(F)(F)F)cn1-c1ccc(-c2cc(F)c(CO)c(S(C)(=O)=O)c2)cc1-n1nncc1C(C)(C)c1ccc(Cl)cc1 ?
Ans: band 2

* * *

Measured EC50 values are reported for all entries that follow.
- Target desc: LXRβ (Homo sapiens, UniProt P55055)
- Construct: Co-transfection expression plasmids, comprising full-length LXRα (pCMX-h LXRα[…] or LXRβ (pCMX-hLXRβ))
- Protocol details: Co-transfection assay (LXRE luciferase reporter), LXRβ
- Measurement setup: CV-1 cells transfected with pCMX-hLXRβ and LXREx1-Tk-Luciferase; 20 hours incubation
- Description: To measure the ability of compounds to activate or inhibit the transcriptional activity of LXR in a cell based assay, the co-transfection assay was used. It has been shown that LXR functions as a heterodimer with RXR. […] Treatment of transfected cells with an LXR agonist increases the transcriptional activity of LXR, which is measured by an increase in luciferase activity. […]
The reply should contain only the number, in nM.

* Cc1nc(C(F)(F)F)cn1-c1ccc(-c2cc(F)c(CO)c(S(C)(=O)=O)c2)cc1-n1nncc1-c1ccc2occc2c1 [Example 216] | 286
* Cc1nc(C(F)(F)F)cn1-c1ccc(-c2cc(F)c(CO)c(S(C)(=O)=O)c2)cc1-c1ccnn1-c1ccc(OC(F)(F)F)cc1 [Example 292] | 65
* COc1ncc(-c2oc(C)nc2-c2cc(-c3cccc(S(C)(=O)=O)c3)ccc2-n2cc(C(F)(F)F)nc2C)cc1F [Example 439] | 410
* Cc1nc(C(F)(F)F)cn1-c1ccc(-c2cc(F)c(CO)c(S(C)(=O)=O)c2)cc1-c1ncoc1-c1ccc(Cl)cc1 [Example 365] | 307
* Cc1nc(C(F)(F)F)cn1-c1ccc(-c2cccc(S(C)(=O)=O)c2)cc1-c1nc(C2CC2)oc1-c1ccc2c(c1)OC(F)(F)O2 [Example 482] | 40

Q: Tell me EC50 reported for Cc1cc(-c2cc(-c3ccc(CO)c(S(C)(=O)=O)c3)ccc2-n2cc(C(F)(F)F)nc2C)n(-c2ccc(OC(F)F)cc2)n1 [Example 302]
Ans: 25

Q: Tell me EC50 reported for Cc1nc(Cl)c(Cl)n1-c1ccc(-c2cccc(S(C)(=O)=O)c2)cc1-n1nncc1-c1ccc(OC(F)(F)F)cc1 [Example 151]
Ans: 214

Q: Give me measured EC50, please, for this compound: CCc1nc(-c2cc(-c3cccc(S(C)(=O)=O)c3)ccc2-n2cc(C(F)(F)F)nc2C)c(-c2ccc3c(c2)OC(F)(F)O3)o1 [Example 478]
Ans: 32

Q: Look up and report measured EC50 for this entry: Cc1nc(-c2cc(-c3cccc(S(C)(=O)=O)c3)ccc2-n2cc(C(F)(F)F)nc2C)c(-c2ccc(Cl)c(Cl)c2)o1 [Example 508]
Ans: 82

Q: Quickly give me recorded EC50 for COCS(=O)(=O)c1cccc(-c2ccc(-n3cc(C(F)(F)F)nc3C)c(-c3nc(C)oc3-c3ccc(OC(F)(F)F)cc3)c2)c1 [Example 539]
Ans: 206

Q: Input Cc1nc(C(F)(F)F)cn1-c1ccc(-c2cc(F)c(CO)c(S(C)(=O)=O)c2)cc1-c1nc(CC(C)C)oc1-c1ccc(OC(F)(F)F)cc1 [Example 561] , output reported EC50.
Ans: 13

Q: Give recorded EC50. CS(=O)(=O)c1cccc(-c2ccc(-n3cc(C(F)(F)F)nc3Cl)c(-n3nncc3-c3ccc(Cl)cc3Cl)c2)c1 [Example 143]
Ans: 942

Q: Entry Cc1nc(-c2cc(-c3cc(F)c(CO)c(S(C)(=O)=O)c3)ccc2-n2cc(C(F)(F)F)nc2C)c(-c2ccc(C(F)(F)F)nc2Cl)o1 [Example 477] needs its EC50 filled in; supply it.
Ans: 271
